// provenance: PubChem BioAssay

Test system: Fibrinogen (Alexa647-labelled)
ASSAY_NAME: fibrinogen binders on compound microarrays, profiling panel, artefact control for SMM control-protein annotation, biochemical, small-molecule microarray, 635/667 nm fluorescence (AID 1131);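 also: z-score merges 667 nm fluorescence with per-spot signal-to-noise over triplicate slides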
EXPERIMENTAL_CONTEXT: fibrinogen-A647 binding fluorescence, higher = more signal
Assignment: determine reported composite z-score for the given compounds.
Respond with the number and no other words.

Query :: Output composite z-score of `CCCNC(=O)[C@@H]1c2ccccc2C(=O)N(Cc2cc(F)cc(C(F)(F)F)c2)[C@H]1c1ccc(CO)cc1`
Result :: 0.62

Query :: # return recorded composite z-score for entry O=C1C2C=CC(C(O)C(c3ccccc3)c3ccccc3)N(Nc3ccc([N+](=O)[O-])cc3)C2C(=O)N1c1ccccc1 (centres undefined)
Result :: 0.953

Query :: Look up and state reported composite z-score for `[N-]=[N+]=NCc1ccccc1[C@H]1OC(c2ccc(OCCCO)cc2)=N[C@@]1(Cc1ccccc1N=[N+]=[N-])C(=O)NCc1ccccc1`
Result :: 0.82

Query :: Supply measured composite z-score of O=C1OCC=C[C@H]2OC34C=CCN(Cc5ccccc5)C(=O)[C@H]3N(CCO)C(=O)[C@@H]4[C@@H]12 (some centres undefined) in your reply.
Result :: -1.04

###

MEASURED_ON: Calmodulin-1 (Homo sapiens)
ASSAY_NAME: CALM1 binders on microarrays, EGTA buffer, profiling panel, biochemical, small-molecule microarray, Cy5-labelled CALM1 (AID 1111);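 also: labelled calmodulin applied in Tris saline Tween buffer holding calcium plus EGTA and DTT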
EXPERIMENTAL_CONTEXT: Cy5-CALM1 binding fluorescence, higher = more signal
REPORTED_METRIC: composite z-score
Answer with a bare number; do not write a unit.

Query :: Enter recorded composite z-score with Calmodulin-1 (Homo sapiens) for `C=C[C@H](OC)[C@@H](OC(=O)Nc1ccc(SC)cc1)c1ccc(O)c(F)c1` here.
Result :: 0.0665

Query :: Fill in: composite z-score on Calmodulin-1 (Homo sapiens), entry C=CCC(OC(C)=O)[C@@H]1[C@@H](N(Cc2cccc3ccccc23)C(=O)Cc2ccc(F)cc2)c2cc(OCCCO)ccc2N1C(=O)Cc1ccc2ccccc2c1 (some centres not stated)
Result :: -0.571

Query :: Answer briefly: composite z-score recorded on Calmodulin-1 (Homo sapiens) for `CO[C@H]1COC(=O)CC=C[C@H](C)[C@@H](OC)COC(=O)[C@H](Cc2ccccc2)NC(=O)CC=C[C@@H]1C`
Result :: -1.67

Query :: Lab note: Calmodulin-1 (Homo sapiens) assay, enter composite z-score for `C=CCNC(=O)[C@H]1[C@@H]2C(=O)O[C@@H](c3ccccc3)[C@@H](c3ccccc3)N2[C@@H](c2ccccc2OCCO)[C@]12C(=O)N(C(=O)OCCOC)c1ccc(C#CCNC(N)=O)cc12` here
Result :: 1.63

Query :: Lab note: Calmodulin-1 (Homo sapiens) assay, enter composite z-score for `COC(=O)[C@@]1(Cc2ccccc2)[C@H]2c3cc(C(=O)N4CCCC4)n(CCN4CNCC4=O)c3C[C@H]2CN1C(=O)c1ccccc1` here
Result :: 1.91

Query :: Fill in: composite z-score on Calmodulin-1 (Homo sapiens), entry `Cc1ccc(S(=O)(=O)N2[C@@H](c3ccccc3)C(C(=O)O)=CC[C@H]2c2ccccc2)cc1`
Result :: 0.526

Query :: Would you please give the reported composite z-score of `C=CC[C@]1(C(=O)O)N=C(c2ccc(OCCCO)cc2)O[C@H]1c1ccccc1` with Calmodulin-1 (Homo sapiens)?
Result :: 1.21
